// antagonist pA2 (Schild, agonist NDP-MSH) lookup, one value per entry
# MEASURED TARGET: mouse melanocortin-4 receptor (mouse, UniProt P56450 1-332)
# Sequence (P56450 whole entry): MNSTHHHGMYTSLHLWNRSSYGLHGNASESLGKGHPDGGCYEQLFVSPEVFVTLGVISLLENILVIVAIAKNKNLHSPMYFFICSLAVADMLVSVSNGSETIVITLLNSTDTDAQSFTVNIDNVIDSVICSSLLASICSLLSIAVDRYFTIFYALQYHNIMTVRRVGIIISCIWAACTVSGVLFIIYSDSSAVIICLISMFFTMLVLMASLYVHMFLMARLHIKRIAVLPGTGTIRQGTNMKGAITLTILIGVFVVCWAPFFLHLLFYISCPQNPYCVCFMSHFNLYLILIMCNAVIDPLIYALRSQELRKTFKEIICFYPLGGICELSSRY
# EXPERIMENTAL DETAILS: cell-based or functional assay
Square brackets hold non-standard residues; d marks the D form.
Field format: numeric only.

cyclo(PRFFNFF[dP]) (SMILES N=C(N)NCCC[C@@H]1NC(=O)[C@@H]2CCCN2C(=O)[C@H]2CCCN2C(=O)[C@H](Cc2ccccc2)NC(=O)[C@H](Cc2ccccc2)NC(=O)[C@H](CC(N)=O)NC(=O)[C@H](Cc2ccccc2)NC(=O)[C@H](Cc2ccccc2)NC1=O) [c[Pro-Arg-Phe-Phe-Asn-Phe-Phe-DPro]] = 5.71
cyclo(PRFFLAF[dP]) (SMILES CC(C)C[C@@H]1NC(=O)[C@H](Cc2ccccc2)NC(=O)[C@H](Cc2ccccc2)NC(=O)[C@H](CCCNC(=N)N)NC(=O)[C@@H]2CCCN2C(=O)[C@H]2CCCN2C(=O)[C@H](Cc2ccccc2)NC(=O)[C@H](C)NC1=O) [c[Pro-Arg-Phe-Phe-Leu-Ala-Phe-DPro]] = 7.34

// next item, antagonist pA2 (Schild, agonist NDP-MSH) requested
Task item: Returns the measured antagonist pA2 (Schild, agonist NDP-MSH) for the input binder. Input: cyclo(PRFFNHF[dP]) (SMILES N=C(N)NCCC[C@@H]1NC(=O)[C@@H]2CCCN2C(=O)[C@H]2CCCN2C(=O)[C@H](Cc2ccccc2)NC(=O)[C@H](Cc2c[nH]cn2)NC(=O)[C@H](CC(N)=O)NC(=O)[C@H](Cc2ccccc2)NC(=O)[C@H](Cc2ccccc2)NC1=O) [c[Pro-Arg-Phe-Phe-Asn-His-Phe-DPro]]
Reply: 6.07
